TGI: recorded values
- Tested on: SF-539 CNS
- test.protocol: NCI tumour cell line growth inhibition, 48 h

Use these answered entries as a reference point.
given.smiles	test.target	TGI
COCCCN(Cc1cc(OC)c(OC)c(OC)c1)C(=S)Nc1cccc(Cl)c1	SF-539 CNS	> 100 µM
N#Cc1cc(-c2nc3ccc(F)cc3s2)ccc1N	SF-539 CNS	> 100 µM
O=C(Nc1nc2ncn(CCNCCn3cnc4nc(NC(=O)c5ccccc5)[nH]c(=O)c43)c2c(=O)[nH]1)c1ccccc1	SF-539 CNS	> 100 µM
Cc1ccc(-c2cc3c(NC(=O)C4CC4)ncnc3o2)cc1	SF-539 CNS	> 25 µM

Bench note: what TGI did CCOCc1cc(=O)c2c(O)cc3c(c2o1)CCC(C)(C)O3 show?
> 100 µM

* * *

- Test system: T-47D breast
- test.protocol: NCI tumour cell line growth inhibition, 48 h
TGI: recorded values

Use these answered entries as a reference point.
compound	test.target	data.value
CC1CC(C)CN(S(=O)(=O)c2cc(Cl)c(Oc3ccc([N+](=O)[O-])cc3Cl)c(Cl)c2)C1 (stereo unspecified)	T-47D breast	> 100 µM
COc1ccc2cc(C(=O)Nc3ccc(O)c(C(=O)O)c3)ccc2c1OC	T-47D breast	> 100 µM
N#CC(C#N)N=Nc1ccc(-c2nc3ccccc3[nH]2)cc1	T-47D breast	55.7 µM

Bench note: what TGI did COc1ccc2nccc(NCCCN3CCN(CCCNc4ccnc5ccc(OC)cc45)CC3)c2c1 show?
4.65 µM

Another: O=c1n(N=S(=O)(c2ccccc2)c2ccccc2)c(=O)n2n1C1C=CC2CC1
> 100 µM

Another: O=C(Nc1ccccc1)c1cc(S(=O)(=O)Nc2nc3ncccc3[nH]2)c(SSc2cc(Cl)c(C(=O)Nc3ccccc3)cc2S(=O)(=O)Nc2nc3ncccc3[nH]2)cc1Cl
> 100 µM

* * *

- System: COLO 205 colon
- test.protocol: NCI tumour cell line growth inhibition, 48 h
TGI: recorded values
// return numeric value only (unit: µM, not printed)

compound	test.target	unit.info	data.value
CCCc1cc2c(cc1O)CC[C@@H]1[C@@H]2CC[C@]2(C)[C@@H](O)CC[C@@H]12	COLO 205 colon	µM	34.5
COc1ccc2nccc(NCCCN3CCN(CCCNc4ccnc5ccc(OC)cc45)CC3)c2c1	COLO 205 colon	µM	1.24
CC(=O)N1N=C(c2cc(C)ccc2O)CC1c1cccc(Cl)c1 (centres undefined)	COLO 205 colon	µM	21.9
O=C1CC[C@@]2(O)[C@H]3Cc4ccc(-c5cccc(O)c5)c5c4[C@@]2(CCN3CC2CC2)[C@H]1O5	COLO 205 colon	µM	43.3

Now turn to the next compound.
Bench note: what TGI did CCCCCCCCCCCc1noc2c1C(=O)C(O)CC2 (centres undefined) show?
83

* * *

- System: MOLT-4 leukemia
- test.protocol: NCI tumour cell line growth inhibition, 48 h
TGI: recorded values

Use these answered entries as a reference point.
compound	TGI
CC(=O)CC(=O)Nc1c(C)[c]([Hg][O]C(C)=O)c(C)[c]([Hg][O]C(C)=O)[c]1[Hg][O]C(C)=O	> 100 µM
Cc1cc(C(=O)NC(C)(C)C)cc(C#Cc2ccc3c4c(oc3c2)C(C)(C)c2cc(NS(C)(=O)=O)ccc2C4=O)n1	> 100 µM

Now turn to the next compound.
Bench note: what TGI did CSCCC(NC(=O)CNC(=O)C(CC(=O)O)NC(=O)C(NC(=O)C(NC(=O)C(NC(=O)CNC(=O)C(CCC(N)=O)NC(=O)C(CCSC)NC(=O)C(CC(=O)O)NC(=O)C(C)NC(=O)C(C)NC(=O)C(NC(=O)C(CO)NC(=O)C(N)CC(C)C)C(C)O)C(C)C)C(C)C)C(C)O)C(=O)NC(C)C(=O)NC(CO)C(=O)NCC(=O)NC(CC(C)C)C(=O)NC(CC(=O)O)C(=O)NC(CCCCN)C(=O)NC(CC(=O)O)C(=O)NC(Cc1ccc(O)cc1)C(=O)NC(CC(C)C)C(=O)NC(CCCCN)C(=O)N1CCCC1C(=O)NC(CC(=O)O)C(=O)NC(CC(=O)O)C(=O)O (stereo not drawn) show?
> 82.5 µM
